system: HCT-116; assay: NCI tumour cell line growth inhibition, 48 h
Active and inactive are the calls of the source. No stated cut-off is given here; in the data, active = GI50 up to about 1.1 µM and inactive = higher.

MOLECULE	GI50
O=C(Cc1ccc(OCc2cccc(Cl)c2)cc1)NO	24.5 µM (inactive)
COc1ccc(C(=O)C(C(=O)CCC(=O)Nc2ccc(Cl)c(Cl)c2)c2ccc(OC)cc2)cc1 (stereo not given)	> 100 µM (inactive)
C=C(C)C1CC(=O)C(C)=C(O)C1 (stereo not given)	> 100 µM (inactive)
CC(C)Oc1c(-c2ccc(F)cc2)c(O)c2c3c1oc(=O)n3C=CC2C (stereo not given)	12.9 µM (inactive)
C=C(C(=O)C(=O)Oc1ccc(Cl)cc1)C(=O)c1ccc(C)cc1	16.7 µM (inactive)
